Field: MCC (minimum cytotoxic concentration). Provide a value for each of the molecules that follow.
- Test system: MDCK cells
- protocolConditions: minimal change in cell morphology after 48 h incubation
Numeric answer only, unit µM assumed.

C[C@H]1[C@H](NCc2cc(-c3ccccc3)cs2)C[C@H]2C[C@@H]1C2(C)C has a reported MCC (minimum cytotoxic concentration) of 5

CCc1csc(CN[C@@H]2C[C@H]3C[C@@H]([C@H]2C)C3(C)C)c1 has a reported MCC (minimum cytotoxic concentration) of 25

C[C@H]1[C@H](NCc2cccs2)C[C@H]2C[C@@H]1C2(C)C has a reported MCC (minimum cytotoxic concentration) of 25

C[C@H]1[C@H](NCc2ccc(Br)s2)C[C@H]2C[C@@H]1C2(C)C has a reported MCC (minimum cytotoxic concentration) of 43

C=Cc1csc(CN[C@@H]2C[C@H]3C[C@@H]([C@H]2C)C3(C)C)c1 has a reported MCC (minimum cytotoxic concentration) of 6.25

Cc1ccsc1CN[C@@H]1C[C@H]2C[C@@H]([C@H]1C)C2(C)C has a reported MCC (minimum cytotoxic concentration) of 10

This collection of values is drawn from paper PMC6496959.
